Data origin: patent US20070110757A1

# SYSTEM UNDER TEST: RSV F protein on respiratory syncytial virus (RSV-Long strain) (respiratory syncytial virus (Long strain)) (UniProt P12568)
# Sequence (P12568 26-574): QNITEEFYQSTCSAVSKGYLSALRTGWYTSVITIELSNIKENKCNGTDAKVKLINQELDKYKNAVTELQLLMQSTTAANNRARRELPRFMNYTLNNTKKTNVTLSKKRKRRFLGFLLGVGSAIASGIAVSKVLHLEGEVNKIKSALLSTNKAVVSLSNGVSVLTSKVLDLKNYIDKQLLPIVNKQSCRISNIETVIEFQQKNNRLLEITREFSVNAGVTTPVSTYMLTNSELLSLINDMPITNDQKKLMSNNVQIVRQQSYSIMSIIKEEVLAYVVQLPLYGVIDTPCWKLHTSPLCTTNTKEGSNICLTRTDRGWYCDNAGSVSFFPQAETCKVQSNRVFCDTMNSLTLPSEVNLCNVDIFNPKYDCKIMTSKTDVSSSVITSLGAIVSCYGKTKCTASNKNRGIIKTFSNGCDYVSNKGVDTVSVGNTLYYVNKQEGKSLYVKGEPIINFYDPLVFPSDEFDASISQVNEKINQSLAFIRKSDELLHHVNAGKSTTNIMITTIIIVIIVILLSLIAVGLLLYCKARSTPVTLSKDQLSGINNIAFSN
# TEST SUMMARY: cell-based or functional assay
ASSAY METRIC: Fold Difference (Curve IC50)

P12f2 Fab fragment (Fab, V domains shown) VH: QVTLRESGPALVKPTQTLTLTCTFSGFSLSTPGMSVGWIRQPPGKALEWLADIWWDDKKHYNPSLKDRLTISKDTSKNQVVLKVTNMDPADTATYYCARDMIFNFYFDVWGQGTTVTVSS VL: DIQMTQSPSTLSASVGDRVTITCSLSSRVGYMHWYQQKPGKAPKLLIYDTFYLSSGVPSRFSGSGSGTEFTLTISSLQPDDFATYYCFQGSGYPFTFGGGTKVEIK :: 11 fold
A17d4(1) Fab fragment (Fab, V domains shown) VH: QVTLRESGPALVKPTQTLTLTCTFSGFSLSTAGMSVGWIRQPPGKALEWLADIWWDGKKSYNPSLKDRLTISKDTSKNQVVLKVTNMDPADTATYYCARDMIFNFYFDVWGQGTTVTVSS VL: DIQMTQSPSTLSASVGDRVTITCLPSSRVGYMHWYQQKPGKAPKLLIYDTMYQSSGVPSRFSGSGSGTEFTLTISSLQPDDFATYYCFQGSGYPFTFGGGTKVEIK :: 25 fold
A1e9 monoclonal antibody (antibody, V domains shown) VH: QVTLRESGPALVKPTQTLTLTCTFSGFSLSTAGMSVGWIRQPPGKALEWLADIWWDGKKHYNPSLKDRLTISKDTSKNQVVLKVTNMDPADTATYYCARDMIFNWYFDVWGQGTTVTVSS VL: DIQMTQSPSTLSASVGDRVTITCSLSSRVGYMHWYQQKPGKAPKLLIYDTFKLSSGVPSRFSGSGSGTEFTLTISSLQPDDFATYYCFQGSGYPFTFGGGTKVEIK :: 7 fold
A8c7 monoclonal antibody (antibody, V domains shown) VH: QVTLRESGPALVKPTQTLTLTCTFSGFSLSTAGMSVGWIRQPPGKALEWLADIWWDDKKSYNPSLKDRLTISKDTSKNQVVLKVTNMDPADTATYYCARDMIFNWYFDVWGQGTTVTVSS VL: DIQMTQSPSTLSASVGDRVTITCSPSSRVGYMHWYQQKPGKAPKLLIYDTRYQSSGVPSRFSGSGSGTEFTLTISSLQPDDFATYYCFQGSGYPFTFGGGTKVEIK :: 13 fold
A13c4 Fab fragment (Fab, V domains shown) VH: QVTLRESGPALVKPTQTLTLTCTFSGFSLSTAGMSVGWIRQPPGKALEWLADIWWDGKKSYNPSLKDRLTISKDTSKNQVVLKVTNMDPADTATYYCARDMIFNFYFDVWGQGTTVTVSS VL: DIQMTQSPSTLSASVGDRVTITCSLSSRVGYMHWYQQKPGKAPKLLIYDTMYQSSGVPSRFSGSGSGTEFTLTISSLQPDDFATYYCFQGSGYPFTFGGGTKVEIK :: 17 fold
